Provide the reported reduced retention time t’R of each item.
Protocol description: RP-HPLC determination of peptide hydrophobicity
Format: physicochemical
Applied conditions: RP-HPLC retention as measure of hydrophobicity; Waters X-Bridge Shield RP-18 3.0 × 100 mm, 3.5 μm; linear 20–65% acetonitrile in water over 30 min, 0.1% TFA, 0.5 mL/min, 25.0 °C, UV 214 nm; 1 g/L; triplicate
Where a SMILES comes first, the peptide text is derived from it. Bridges are numbered along the chain shown (N, C = ends). The star is where a group is joined. Palmitoyl = CCCCCCCCCCCCCCCC(=O)*
Entry rule: numbers only, all in min.

Q) What measured reduced retention time t’R goes with CCCCCCCCCCCCCCCC(=O)N[C@@H](CCCCN)C(=O)N[C@@H](CCCNC(=N)N)C(=O)N[C@@H](CCCCN)C(=O)N[C@@H](CCCCN)C(N)=O [L4, C16-KRKK-NH2] (Palmitoyl-KRKK-NH2) ?
A) 15.18

Q) # iterate: CCCCCCCCCCCCCCCC(=O)N[C@@H](CCCCN)C(=O)N[C@@H](CCCCN)C(=O)N[C@@H](CCCCN)C(=O)N[C@@H](CCCNC(=N)N)C(N)=O [L6, C16-KKKR-NH2] (Palmitoyl-KKKR-NH2)
A) 14.89

Q) # iterate: CCCCCCCCCCCCCCCC(=O)N[C@@H](CCCCN)C(=O)N[C@@H](CCCCN)C(=O)N[C@@H](CCCCN)C(=O)N[C@@H](CCCCN)C(N)=O [L2, C16-KKKK-NH2] (Palmitoyl-KKKK-NH2)
A) 14.77

Q) # iterate: CCCCCCCCCCCCCCCC(=O)N[C@H]1CSSC[C@@H](C(N)=O)NC(=O)[C@H](CCCCN)NC(=O)[C@H](CCCCN)NC(=O)[C@H](CCCCN)NC(=O)[C@H](CCCNC(=N)N)NC1=O [C3, C16-CRKKKC-NH2] (Palmitoyl-CRKKKC-NH2; disulfide 1-6)
A) 16.51

----------
Test system: Candida lipolytica PCM 2680-FY
Format: cell-based
Applied conditions: 24 h
Where a SMILES comes first, the peptide text is derived from it. Bridges are numbered along the chain shown (N, C = ends). The star is where a group is joined. Palmitoyl = CCCCCCCCCCCCCCCC(=O)*
Provide the reported MBIC C. lipolytica of each item.

Q) What measured MBIC C. lipolytica goes with CCCCCCCCCCCCCCCC(=O)N[C@H]1CSSC[C@@H](C(N)=O)NC(=O)[C@H](CCCCN)NC(=O)[C@H](CCCNC(=N)N)NC(=O)[C@H](CCCCN)NC(=O)[C@H](CCCCN)NC1=O [C5, C16-CKKRKC-NH2] (Palmitoyl-CKKRKC-NH2; disulfide 1-6) ?
A) 8 µg/mL

Q) # iterate: CCCCCCCCCCCCCCCC(=O)N[C@H]1CSSC[C@@H](C(N)=O)NC(=O)[C@H](CCCCN)NC(=O)[C@H](CCCCN)NC(=O)[C@H](CCCCN)NC(=O)[C@H](CCCNC(=N)N)NC1=O [C3, C16-CRKKKC-NH2] (Palmitoyl-CRKKKC-NH2; disulfide 1-6)
A) 2 µg/mL

Q) # iterate: CCCCCCCCCCCCCCCC(=O)N[C@H]1CSSC[C@@H](C(N)=O)NC(=O)[C@H](CCCCN)NC(=O)[C@H](CCCCN)NC(=O)[C@H](CCCNC(=N)N)NC(=O)[C@H](CCCCN)NC1=O [C4, C16-CKRKKC-NH2] (Palmitoyl-CKRKKC-NH2; disulfide 1-6)
A) 4 µg/mL

Q) # iterate: CCCCCCCCCCCCCCCC(=O)N[C@@H](CCCNC(=N)N)C(=O)N[C@@H](CCCNC(=N)N)C(=O)N[C@@H](CCCCN)C(=O)N[C@@H](CCCCN)C(N)=O [L7, C16-RRKK-NH2] (Palmitoyl-RRKK-NH2)
A) 16 µg/mL

Q) # iterate: CCCCCCCCCCCCCCCC(=O)N[C@@H](CCCNC(=N)N)C(=O)N[C@@H](CCCCN)C(=O)N[C@@H](CCCCN)C(=O)N[C@@H](CCCCN)C(N)=O [L3, C16-RKKK-NH2] (Palmitoyl-RKKK-NH2)
A) 16 µg/mL

Data provenance: paper PMC7582905
